target: Prostaglandin G/H synthase 2 (Homo sapiens)
Sequence (P35354 whole entry): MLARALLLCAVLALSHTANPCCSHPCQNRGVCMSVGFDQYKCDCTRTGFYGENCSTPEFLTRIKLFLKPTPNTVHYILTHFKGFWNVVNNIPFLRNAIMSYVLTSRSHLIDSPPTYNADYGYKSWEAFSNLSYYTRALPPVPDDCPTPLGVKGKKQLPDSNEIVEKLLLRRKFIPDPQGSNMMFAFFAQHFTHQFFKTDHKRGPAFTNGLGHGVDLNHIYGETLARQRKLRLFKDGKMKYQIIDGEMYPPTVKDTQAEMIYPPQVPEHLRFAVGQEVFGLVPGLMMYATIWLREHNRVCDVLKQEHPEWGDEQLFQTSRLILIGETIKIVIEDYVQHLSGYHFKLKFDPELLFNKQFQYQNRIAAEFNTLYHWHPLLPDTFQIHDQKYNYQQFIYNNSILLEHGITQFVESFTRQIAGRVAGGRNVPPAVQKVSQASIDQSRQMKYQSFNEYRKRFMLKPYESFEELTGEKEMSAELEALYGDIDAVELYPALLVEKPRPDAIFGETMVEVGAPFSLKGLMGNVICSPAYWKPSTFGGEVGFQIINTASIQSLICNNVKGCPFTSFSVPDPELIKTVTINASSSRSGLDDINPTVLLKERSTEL
// assign Met if IC50 falls strictly below 10 µM, else Not met (ties count as Not met)

compound	category
COc1ccc2c(OC)ccc(C3CC(c4cc5ccccc5o4)=NN3C(N)=S)c2c1 (centres undefined)	Not met
CN(C)c1ccc(/C=C/C(=O)c2ccc3c(c2)OCCO3)c2ccccc12	Not met
COc1ccc2c(OC)ccc(/C=C/C(=O)c3cc4ccccc4o3)c2c1	Not met
CN(C)c1ccc(C2CC(c3cc4ccccc4o3)=NN2C(=O)Nc2ccc(Cl)cc2)c2ccccc12 (centres undefined)	Met
COc1cc2ccccc2c(C2CC(c3cc4ccccc4o3)=NN2C(=O)Nc2ccc(Cl)cc2)c1OC (centres undefined)	Met
COc1ccc2c(OC)ccc(C3CC(c4ccc5c(c4)OCCO5)=NN3C(=O)Nc3ccc(Cl)cc3)c2c1 (centres undefined)	Not met
CN(C)c1ccc(C2CC(c3ccc4c(c3)OCCO4)=NN2C(N)=S)c2ccccc12 (centres undefined)	Not met
COc1cc2ccccc2c(C2CC(c3cc4ccccc4o3)=NN2C(N)=S)c1OC (centres undefined)	Not met
